Just for reference, patent US11185531B2 is where these values come from.

Target: human PRMT8 (Homo sapiens)
Construct: Full-length human PRMT8 (NM_019854.4) isoform 1 transcript clone; GST (N, cleaved yes)
Sequence (Q9NR22 whole entry, canonical isoform): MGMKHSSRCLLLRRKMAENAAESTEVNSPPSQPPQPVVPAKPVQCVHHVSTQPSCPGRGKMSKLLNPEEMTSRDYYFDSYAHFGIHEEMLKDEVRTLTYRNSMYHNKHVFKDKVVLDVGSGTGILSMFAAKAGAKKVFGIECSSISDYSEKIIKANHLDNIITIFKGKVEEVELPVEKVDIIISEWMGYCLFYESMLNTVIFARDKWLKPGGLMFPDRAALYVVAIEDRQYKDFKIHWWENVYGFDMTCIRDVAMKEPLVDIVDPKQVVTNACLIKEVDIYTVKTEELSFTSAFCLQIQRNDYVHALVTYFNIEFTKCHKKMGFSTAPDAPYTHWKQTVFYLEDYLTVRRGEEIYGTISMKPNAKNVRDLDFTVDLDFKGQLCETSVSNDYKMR
Assay: PRMT8 Biochemical Assay (3H-SAM Flashplate, peptide substrate)
Details: 30 min preincubation
pIC50: −log10 of the molar value.
measured_property: pIC50

molecule | result
CNCCN(C)Cc1c[nH]nc1C1CCN(C(=O)C(C)C)CC1 | 6.00 to 7.00
CN(CCN)Cc1c[nH]nc1C1CCC1 | 5.00 to 5.52
COC/C=C/c1n[nH]cc1CN(C)CCN | 5.52 to 6.00
CC(C)Cc1n[nH]cc1CN(C)CCN | 5.52 to 6.00
CNCCN(C)Cc1c[nH]nc1/C=C/c1ccc(C(F)(F)F)cc1 | 6.00 to 7.00
CN(CCN)Cc1c[nH]nc1C1=CCOCC1 | 5.52 to 6.00
CC1CCC(c2n[nH]cc2CN(C)CCN)CC1 (stereo not shown) | 6.00 to 7.00
CN(CCN)Cc1c[nH]nc1/C=C/c1cc(F)cc(F)c1 | 6.00 to 7.00
CNCCN(C)Cc1c[nH]nc1C1CCN(C(=O)Cc2ccccc2)CC1 | 5.52 to 6.00
CN(CCN)Cc1c[nH]nc1/C=C/c1cc(C(F)(F)F)cc(C(F)(F)F)c1 | 6.00 to 7.00

###

Molecular target: human PRMT8 (Homo sapiens)
Construct: Full-length human PRMT8 (NM_019854.4) isoform 1 transcript clone; GST (N, cleaved yes)
Assay: PRMT8 Biochemical Assay (3H-SAM Flashplate, peptide substrate)
Settings: 30 min preincubation
pIC50: −log10 of the molar value.
Listed here are compounds together with their documented pIC50.

compound | pIC50
CNCCN(C)Cc1c[nH]nc1/C=C/c1ccc(OC)cc1 | 6.00 to 7.00
CN(CCN)Cc1c[nH]nc1/C=C/c1cccc(C(F)(F)F)c1 | 6.00 to 7.00
CC1CCC(c2c[nH]nc2CN(C)CCN)CC1 (stereo not drawn) | 6.00 to 7.00
CN(CCN)Cc1c[nH]nc1/C=C/c1ccc(F)cc1F | 6.00 to 7.00
CNCCN(C)Cc1c[nH]nc1C#Cc1ccc(C(C)(C)C)cc1 | 6.00 to 7.00
CNCCN(C)Cc1c[nH]nc1C#Cc1ccc(F)cc1 | 6.00 to 7.00
CN(CCN)Cc1n[nH]cc1C1CCC(C)(C)CC1 | 6.00 to 7.00
CN(CCN)Cc1c[nH]nc1CCc1ccc(F)cc1 | 6.00 to 7.00
CC(C)c1n[nH]cc1CN(C)CCN | 5.00 to 5.52
CNCCN(C)Cc1c[nH]nc1C#Cc1cccc(OC)c1 | 6.00 to 7.00
CCCc1n[nH]cc1CN(C)CCN | 5.52 to 6.00
COc1cccc(/C=C/c2n[nH]cc2CN(C)CCN)c1 | 6.00 to 7.00
CN(CCN)Cc1c[nH]nc1C1=CCCC1 | 5.52 to 6.00
CNCCN(C)Cc1c[nH]nc1C1CCN(C)CC1 | 5.00 to 5.52
CNCCN(C)Cc1c[nH]nc1C1CCN(CC(C)C)CC1 | 6.00 to 7.00
CN(CCN)Cc1c[nH]nc1/C=C/Cc1ccccc1 | 6.00 to 7.00
CNCCN(C)Cc1c[nH]nc1/C=C/c1ccc(-c2ccccc2)cc1 | 6.00 to 7.00
CNCCN(C)Cc1c[nH]nc1C1CCN(C(=O)CC(C)C)CC1 | 6.00 to 7.00
